TEST PROTOCOL: qHTS assay to identify small molecule antagonists of the progesterone receptor (PR) signaling pathway - cell viability counter screen (AID 1346798); note: nearly all actives have a fitted effect of over 50% in size
CONDITION INFO: PR-UAS-bla HEK293T viability, CellTiter-Glo luminescence, 16 h; series mostly up to 92.4 µM
Inconclusive results are not listed. Calls of active or inactive are those of the source. Calls come from the whole dose curve; as a rule, active = well fitted cell-killing curve with a large enough effect in the repeat runs; inconclusive = weak or mixed curves, or effect the other way; inactive = no such curve, though single readings can be large or run the other way.
API: response.call in active, inactive

{"COMPOUND": "Oc1cc2ccccc2c2ccccc12", "CATEGORY LABEL": "active"}
{"COMPOUND": "CCCCCCCCn1sc(Cl)c(Cl)c1=O", "CATEGORY LABEL": "inactive"}
{"COMPOUND": "CCCCCCCCCCn1cc[n+](CCCCCCCCCC)c1C", "CATEGORY LABEL": "active"}
{"COMPOUND": "O=C(Nc1cccc(Cl)c1)OCC#CCCl", "CATEGORY LABEL": "active"}
{"COMPOUND": "Fc1ccc([C@@H]2CCNC[C@H]2COc2ccc3c(c2)OCO3)cc1", "CATEGORY LABEL": "inactive"}
{"COMPOUND": "NC(=O)N1C(=O)C(C(=O)c2cc(Cl)cs2)c2cc(F)c(Cl)cc21 (configuration not stated)", "CATEGORY LABEL": "active"}

Field: outcome | Entry: CCCCCCCCCCCCCCCCCC[N+](C)(C)Cc1ccccc1
active

Field: outcome | Entry: CCCCCCCCCCCCCC[P+](CCCC)(CCCC)CCCC (tested in a mixture with another compound)
active

Field: outcome | Entry: NNc1nc(-c2ccc([N+](=O)[O-])cc2)cs1
inactive

====

TEST PROTOCOL: A CellTox Green Cytotoxicity Assay to monitor cytotoxicity in HEK293 cells - 8 hour (AID 1224884); note: nearly all actives have a fitted effect of over 35% in size
CONDITION INFO: CellTox Green fluorescence; series mostly up to 76.8 µM
Records with an inconclusive call do not appear. Activity calls are given as the source filed them. Calls come from the whole dose curve; as a rule, active = well fitted activation curve with a large enough effect in the repeat runs; inconclusive = weak or mixed curves; inactive = flat fitted curve, though single readings scatter.
API: response.call in TRUE (active), FALSE (inactive)

Here are 5 compounds together with their reported answers.
{"COMPOUND": "CS(=O)(=O)CCNCc1ccc(-c2ccc3ncnc(Nc4ccc(OCc5cccc(F)c5)c(Cl)c4)c3c2)o1", "CATEGORY LABEL": "FALSE"}
{"COMPOUND": "COc1cc(/C=C/C(=O)O[C@H]2CC[C@]34C[C@]35CC[C@]3(C)[C@@H]([C@H](C)CCC=C(C)C)CC[C@@]3(C)[C@@H]5CC[C@H]4C2(C)C)ccc1O", "CATEGORY LABEL": "FALSE"}
{"COMPOUND": "CCCCCOc1ccccc1/C(=C\\SC)n1ccnc1", "CATEGORY LABEL": "FALSE"}
{"COMPOUND": "Clc1ccc2cc3ccccc3cc2c1", "CATEGORY LABEL": "FALSE"}
{"COMPOUND": "O=C(NO)C1(NS(=O)(=O)c2ccc(Oc3ccc(F)cc3)cc2)CCOCC1", "CATEGORY LABEL": "FALSE"}

Field: outcome | Entry: O=C(Oc1cccc2cccnc12)c1ccccc1
FALSE

Field: outcome | Entry: COc1ccc(CN2CCN(C(c3ccc(F)cc3)c3ccc(F)cc3)CC2)c(OC)c1OC
FALSE

Field: outcome | Entry: CNc1ccc(O)cc1
FALSE

Field: outcome | Entry: CC(C)(C)NC(=O)[C@@H]1C[C@@H]2CCCC[C@@H]2CN1C[C@@H](O)[C@H](Cc1ccccc1)NC(=O)[C@H](CC(N)=O)NC(=O)c1ccc2ccccc2n1
FALSE

Field: outcome | Entry: C/C=C1/C(=O)C[C@H]2[C@@H]3CCC4=CC(=O)CC[C@]4(C)[C@H]3CC[C@]12C
FALSE

Field: outcome | Entry: Oc1ccc2c(c1)-c1ccccc1C2
FALSE

Field: outcome | Entry: CCCCCCCCNC(C)C(O)c1ccc(SC(C)C)cc1 (stereo not drawn)
TRUE

Field: outcome | Entry: CCN(C(=O)N(CC)c1ccccc1)c1ccccc1
FALSE

Field: outcome | Entry: CCCCCCCCn1sc(Cl)c(Cl)c1=O
TRUE

Field: outcome | Entry: Cc1cc(O)c(C(C)(C)C)cc1C(C)(C)C
TRUE

Field: outcome | Entry: Clc1ccccc1C(c1ccccc1)(c1ccccc1)n1ccnc1
FALSE

Field: outcome | Entry: c1ccc(CSCc2ccccc2)cc1
FALSE

Field: outcome | Entry: CN(C)CCCOC1(Cc2ccccc2)CCCCCC1
FALSE

Field: outcome | Entry: Cc1cc(=O)oc2cc(N(C)C)ccc12
FALSE

====

TEST PROTOCOL: qHTS assay to identify small molecule agonists of H2AX - cell viability counter screen (AID 1224847); note: nearly all actives have a fitted effect of over 30% in size
CONDITION INFO: CHO-K1 viability, CellTiter-Glo luminescence, 3 h; series mostly up to 70.9 µM
Inconclusive results are not listed. Active and inactive are the calls of the source. The call rests on the fitted dose curve.
API: response.call in Y = active, N = inactive

Here are 2 molecules together with their reported answers.
{"SMILES STRUCTURE": "O=C(OC[C@H]1O[C@@H](OC(=O)c2cc(O)c(O)c(OC(=O)c3cc(O)c(O)c(O)c3)c2)[C@H](OC(=O)c2cc(O)c(O)c(OC(=O)c3cc(O)c(O)c(O)c3)c2)[C@@H](OC(=O)c2cc(O)c(O)c(OC(=O)c3cc(O)c(O)c(O)c3)c2)[C@@H]1OC(=O)c1cc(O)c(O)c(OC(=O)c2cc(O)c(O)c(O)c2)c1)c1cc(O)c(O)c(OC(=O)c2cc(O)c(O)c(O)c2)c1", "CATEGORY LABEL": "N"}
{"SMILES STRUCTURE": "O=c1[nH]sc2cc(Cl)ccc12", "CATEGORY LABEL": "N"}

# evaluate next
Field: outcome | Entry: CN(C)C(=O)C1(N2CCCCC2)CCN(CC[C@@]2(c3ccc(Cl)c(Cl)c3)CN(C(=O)c3ccccc3)CCO2)CC1
Y

====

TARGET OR TEST SYSTEM: Androgen receptor (Homo sapiens) (UniProt P10275)
Sequence (P10275 whole entry, looked up): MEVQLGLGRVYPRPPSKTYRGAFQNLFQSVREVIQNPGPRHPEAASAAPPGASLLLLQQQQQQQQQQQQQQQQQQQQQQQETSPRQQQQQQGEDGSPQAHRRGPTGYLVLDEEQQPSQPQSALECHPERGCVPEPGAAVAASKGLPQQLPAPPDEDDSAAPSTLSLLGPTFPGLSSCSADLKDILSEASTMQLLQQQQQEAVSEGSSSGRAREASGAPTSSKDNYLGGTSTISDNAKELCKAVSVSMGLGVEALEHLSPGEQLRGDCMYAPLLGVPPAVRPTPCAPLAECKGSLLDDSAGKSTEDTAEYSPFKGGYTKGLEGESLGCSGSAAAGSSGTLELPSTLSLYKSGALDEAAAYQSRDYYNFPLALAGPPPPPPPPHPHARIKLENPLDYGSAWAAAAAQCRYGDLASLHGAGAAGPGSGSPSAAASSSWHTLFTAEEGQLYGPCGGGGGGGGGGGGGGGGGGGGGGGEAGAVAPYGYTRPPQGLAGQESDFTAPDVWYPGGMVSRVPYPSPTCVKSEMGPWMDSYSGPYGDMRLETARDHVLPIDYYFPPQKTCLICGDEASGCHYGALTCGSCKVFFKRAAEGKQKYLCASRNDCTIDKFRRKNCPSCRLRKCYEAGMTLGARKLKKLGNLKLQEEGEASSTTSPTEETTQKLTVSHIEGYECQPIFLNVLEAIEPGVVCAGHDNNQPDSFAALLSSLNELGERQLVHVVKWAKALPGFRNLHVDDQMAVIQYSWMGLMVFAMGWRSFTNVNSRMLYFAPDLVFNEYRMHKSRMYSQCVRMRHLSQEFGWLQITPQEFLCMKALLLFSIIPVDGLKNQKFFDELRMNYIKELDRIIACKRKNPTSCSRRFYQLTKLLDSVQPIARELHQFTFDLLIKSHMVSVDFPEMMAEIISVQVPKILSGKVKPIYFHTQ
TEST PROTOCOL: qHTS assay to identify small molecule antagonists of the androgen receptor (AR) signaling pathway (AID 743035)
CONDITION INFO: HEK293 AR-UAS-bla, R1881-stimulated, beta-lactamase FRET, 16 h; series mostly up to 58.5 µM
Records with an inconclusive call do not appear. Calls of active or inactive are those of the source. The call rests on the fitted dose curve; in most records, active means well fitted inhibition curve with a large enough effect in the signal ratio in the repeat runs (not every such curve was filed as active); inconclusive means weak or mixed curves, or effect the other way; inactive means no such curve, though single readings can be large or run the other way; the % refers to the signal ratio.
API: response.call in active, inactive

Field: outcome | Entry: CN(C)c1ccc(C2(c3ccc(N(C)C)cc3)OC(=O)c3cc(N(C)C)ccc32)cc1
inactive

Field: outcome | Entry: N#CSc1ccc(N)c([N+](=O)[O-])c1
active

Field: outcome | Entry: CS(=O)(=O)CCNCc1ccc(-c2ccc3ncnc(Nc4ccc(OCc5cccc(F)c5)c(Cl)c4)c3c2)o1
inactive

Field: outcome | Entry: CCCC(=O)OC[C@@H](OC(=O)CCC)[C@@H](OC(=O)CCC)[C@H](Cn1c2nc(=O)[nH]c(=O)c-2nc2cc(C)c(C)cc21)OC(=O)CCC
inactive

Field: outcome | Entry: CCCCCCCCCOC(=O)c1ccc(O)cc1
active

====

TARGET OR TEST SYSTEM: Estrogen receptor beta (Homo sapiens) (UniProt Q92731)
Sequence (Q92731 whole entry, looked up): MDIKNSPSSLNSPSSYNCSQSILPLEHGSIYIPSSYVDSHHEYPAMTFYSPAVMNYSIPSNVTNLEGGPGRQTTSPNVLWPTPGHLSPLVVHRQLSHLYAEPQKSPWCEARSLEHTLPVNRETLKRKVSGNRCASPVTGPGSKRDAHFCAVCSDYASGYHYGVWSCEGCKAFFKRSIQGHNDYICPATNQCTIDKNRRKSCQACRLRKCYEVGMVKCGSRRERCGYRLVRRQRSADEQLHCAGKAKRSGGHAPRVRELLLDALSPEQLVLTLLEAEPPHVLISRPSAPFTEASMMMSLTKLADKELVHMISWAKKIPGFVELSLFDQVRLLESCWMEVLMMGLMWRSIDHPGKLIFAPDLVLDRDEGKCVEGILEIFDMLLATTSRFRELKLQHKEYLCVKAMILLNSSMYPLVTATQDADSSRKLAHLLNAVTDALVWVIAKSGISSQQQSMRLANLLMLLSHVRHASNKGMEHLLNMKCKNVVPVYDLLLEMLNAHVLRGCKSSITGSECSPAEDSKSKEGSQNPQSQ
TEST PROTOCOL: qHTS assay to identify small molecule agonists of the estrogen receptor beta (ER-beta) signaling pathway (AID 1259377)
CONDITION INFO: ER-beta-UAS-bla HEK293T, beta-lactamase FRET ratio, 16 h; series mostly up to 92.4 µM
Excerpt: U.S. Tox21 Program National Center for Advancing Translational Sciences [NCATS] NIH Chemical Genomics Center [NCGC] U.S. Environmental Protection Agency [EPA] National Institutes of Environmental Health Sciences [NIEHS] National Toxicology Program [NTP] U.S. Food and Drug Administration [FDA] Tox21 Assay Overview: Estrogen receptor (ER), a nuclear hormone receptor, plays an important role in development, metabolic homeostasis and reproduction. […]
Records with an inconclusive call do not appear. Active and inactive are the calls of the source. Calls come from the whole dose curve; as a rule, active = well fitted activation curve with a large enough effect in the signal ratio in the repeat runs (not every such curve was filed as active); inconclusive = weak or mixed curves, or effect the other way; inactive = flat fitted curve, though single readings scatter; the % refers to the signal ratio.
API: response.call in active, inactive

Here are 3 molecules together with their reported answers.
{"SMILES STRUCTURE": "NNc1nc(-c2ccc(N)cc2)cs1", "CATEGORY LABEL": "inactive"}
{"SMILES STRUCTURE": "CC[C@H](c1ccc(O)cc1)[C@@H](CC)c1ccc(O)cc1", "CATEGORY LABEL": "active"}
{"SMILES STRUCTURE": "CCCCCCCC(=O)[O-].CCCCCCCC(=O)[O-].[Zn+2]", "CATEGORY LABEL": "inactive"}

# evaluate next
Field: outcome | Entry: CCC(N)(CO)CO
inactive

====

TEST PROTOCOL: qHTS assay for small molecule agonists of the p53 signaling pathway (AID 651631); note: nearly all actives have a fitted effect of over 15% in size
CONDITION INFO: HCT-116 p53RE-bla reporter, beta-lactamase FRET ratio, 16 h; series mostly up to 73.3 µM
Records with an inconclusive call do not appear. Calls of active or inactive are those of the source. The call rests on the fitted dose curve.
API: response.call in yes for active, no for inactive

Field: outcome | Entry: NC(=O)CC[C@@H]1NC(=O)[C@H](Cc2ccccc2)NC(=O)[C@H](Cc2ccc(O)cc2)NC(=O)CCSSC[C@@H](C(=O)N2CCC[C@H]2C(=O)N[C@@H](CCCN=C(N)N)C(=O)NCC(N)=O)NC(=O)[C@H](CC(N)=O)NC1=O
no

Field: outcome | Entry: C=CC(=O)OCC(CO)(COCC(COC(=O)C=C)(COC(=O)C=C)COC(=O)C=C)COC(=O)C=C
yes

Field: outcome | Entry: CN(C)c1ccc(C2(c3ccc(N(C)C)cc3)OC(=O)c3cc(N(C)C)ccc32)cc1
yes

Provenance of the data: PubChem BioAssay (Tox21)
